Test: qHTS Assay for Lipid Storage Modulators in Drosophila S3 Cells; note: potency is the fitted concentration of half-maximal effect
Settings: BODIPY lipid droplet fluorescence, 18-24 h, cells fed with added oleic acid; series mostly up to 46.1 µM
Screen size: about 320,000 compounds; about 2,100 (0.66%) were called active. About 53% were inconclusive and are not listed. Shown is part of a subset that was picked to be rich in actives.
Reported Endpoint: Potency

Solved cases below.
>  <Smiles Structure>
COc1ccccc1-n1c(C)cc(SC)c(C(C)=O)c1=S

>  <Potency>
inactive

$$$$
>  <Smiles Structure>
O=[N+]([O-])c1cccc(/C=N/Nc2nc(NCc3ccccc3)nc(N3CCOCC3)n2)c1O

>  <Potency>
inactive

$$$$
>  <Smiles Structure>
COc1nc(N/N=C/c2ccc(-c3cccc([N+](=O)[O-])c3)o2)nc(N2CCOCC2)n1

>  <Potency>
inactive

$$$$
>  <Smiles Structure>
C/C(=N\Nc1nccnc1Cl)c1ccc([N+](=O)[O-])cc1

>  <Potency>
inactive

$$$$
>  <Smiles Structure>
O=[N+]([O-])c1ccc(-c2ccc(/C=N/Nc3nc(N4CCCC4)nc(N4CCCC4)n3)o2)cc1

>  <Potency>
inactive

$$$$

Query: Look up and report measured Potency for this entry: `Cc1ccc(S(=O)(=O)CCSc2nc(C)cc(C(F)(F)F)c2C#N)cc1`
Reply: 16.4 µM (active)

Query: Look up and report measured Potency for this entry: `OCC1(CCOc2ccccc2)CCN(Cc2ccccc2OC(F)F)CC1`
Reply: inactive

* * *

Test: qHTS Assay for Lipid Storage Modulators in Drosophila S3 Cells;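 for cell number change: cells counted by Cell Tracker Red CMTPX staining in the red channel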
Details: BODIPY lipid droplet fluorescence, 18-24 h, cells fed with added oleic acid; measured here: cell count max response
In all, about 320,000 compounds went through this assay and about 2,100 (0.66%) were called active. Inconclusive results (about 53%) are left out. Many of the other results were omitted from the sample, so actives are more common in it than they were.
Reported Endpoint: cell number change (%)
Entry rule: numbers only, all in %.

Solved cases below.
>  <Smiles Structure>
O=C(NCCCn1ccnc1)Nc1ccc(Cl)cc1

>  <Reported Endpoint>
cell number change

>  <Numeric Result>
-5.93

$$$$
>  <Smiles Structure>
Cc1ccc(S(=O)(=O)N2CCN(CC(=O)Nc3ccccc3C(=O)NC3CC3)CC2)cc1

>  <Reported Endpoint>
cell number change

>  <Numeric Result>
-13.8

$$$$
>  <Smiles Structure>
CC(=O)N1CCc2c(sc(NC(=O)Cc3ccc(F)cc3)c2C#N)C1

>  <Reported Endpoint>
cell number change

>  <Numeric Result>
7.34

$$$$

Query: Look up and report measured cell number change for this entry: `COCCC(=O)N1CCC(Oc2ccc(C(=O)NCCc3cnn(C)c3)cc2)CC1`
Reply: 8.02

Query: Look up and report measured cell number change for this entry: `O=C(COC(=O)c1cccc(S(=O)(=O)N2CCOCC2)c1)Nc1ccc(Cl)cn1`
Reply: -3.5

Query: Look up and report measured cell number change for this entry: `COc1cc(CC(=O)OCC(=O)Nc2ccc(S(=O)(=O)N3CCCC3)cc2)cc(OC)c1OC`
Reply: -19.3

Query: Look up and report measured cell number change for this entry: `O=C1C(Cl)=C(Nc2ccccc2)C(=O)c2ccccc21`
Reply: -30.2

Query: Look up and report measured cell number change for this entry: `COc1ccc(C(C)=O)cc1CN1C(=O)NC2(CCCCCCC2)C1=O`
Reply: 6.34

Query: Look up and report measured cell number change for this entry: `O=C(COC(=O)c1cccc(S(=O)(=O)N2CCOCC2)c1)Nc1ncc(C(F)(F)F)cc1Cl`
Reply: -11.5

Query: Look up and report measured cell number change for this entry: `N=C(N)Sc1nc(N2CCCCC2)nc(N2CCCCC2)n1`
Reply: 2.17

Query: Look up and report measured cell number change for this entry: `CCCCc1nnc(NC(=O)CSc2nc(O)c(-c3ccccc3)c(=O)[nH]2)s1`
Reply: -17.7

Query: Look up and report measured cell number change for this entry: `Cc1ccc(NS(=O)(=O)c2ccc(C(=O)OCC(=O)Nc3cc(C)on3)cc2)cc1`
Reply: -18.1

Query: Look up and report measured cell number change for this entry: `CN1CCC(NC(=O)Nc2ccc(Br)cc2)CC1`
Reply: -12.5
